- Tested on: EKO-35 porinated strain expressing acrF (AcrEF)
- assay.method.text: Checkerboard synergy (FICI), porinated strain
- Format: cell-based, Escherichia coli
- test.parameters: strain EKO-35 acrEF Pore; antibiotic in combination with NMP
property: MICb Combined (µg/mL)
Numbers only, in µg/mL.

Use the examples below as a reference point.
INSERT INTO results (compound, property, units_text, quantitative_result) VALUES
  ('CC(=O)O[C@H]1C[C@@]2(C)[C@@H](C[C@@H](O)[C@H]3[C@@]4(C)CC[C@@H](O)[C@@H](C)[C@@H]4CC[C@@]32C)/C1=C(\CCC=C(C)C)C(=O)O', 'MICb Combined', 'µg/mL', 1),
  ('CC[n+]1c(-c2ccccc2)c2cc(N)ccc2c2ccc(N)cc21 [ethidium bromide]', 'MICb Combined', 'µg/mL', 0.5),
  ('Cc1onc(-c2ccccc2)c1C(=O)N[C@@H]1C(=O)N2[C@@H]1SC(C)(C)[C@@H]2C(=O)O', 'MICb Combined', 'µg/mL', 1);

Consider now this further compound.
**Query** Using EKO-35 porinated strain expressing acrF (AcrEF) as the test system, report measured MICb Combined of `CC[C@H]1OC(=O)[C@H](C)[C@@H](O[C@H]2C[C@@](C)(OC)[C@@H](O)[C@H](C)O2)[C@H](C)[C@@H](O[C@@H]2O[C@H](C)C[C@H](N(C)C)[C@H]2O)[C@](C)(O)C[C@@H](C)C(=O)[C@H](C)[C@@H](O)[C@]1(C)O` .
**Result** 0.5

---

- Tested on: EKO-35 araC::mdtEF
- assay.method.text: MIC susceptibility profiling, efflux platform
- Type: cell-based, Escherichia coli
- test.parameters: EKO-35 araC::mdtEF compared to EKO-35
Would you mind telling me the reported Fold change of MICs of each entry?
Numbers only, in fold.

INSERT INTO assay_data (compound, quantitative_result) VALUES
  ('N#CC(C#N)=NNc1ccc(-n2ccc(C(F)(F)F)n2)cc1 [compound 8]', 1);

Look at each compound and report its Fold change of MICs.
1. CC(=O)O[C@H]1C[C@@]2(C)[C@@H](C[C@@H](O)[C@H]3[C@@]4(C)CC[C@@H](O)[C@@H](C)[C@@H]4CC[C@@]32C)/C1=C(\CCC=C(C)C)C(=O)O [fusidic acid]
2. N#CC(=NNc1ccc(F)c(Cl)c1)C(=O)c1ccc(Cl)cc1 [compound 15]
3. CC1(C)S[C@@H]2[C@H](NC(=O)[C@H](N)c3ccccc3)C(=O)N2[C@H]1C(=O)O [ampicillin]
4. CN[C@@H]1[C@H](O)[C@H](NC)[C@H]2O[C@@]3(O)C(=O)C[C@@H](C)O[C@H]3O[C@@H]2[C@H]1O [Spectinomycin]
5. N#CC(=NNc1cccc(C(F)(F)F)c1)C(=O)c1ccsc1 [compound 3]
6. CN(C)c1ccc(O)c2c1C[C@H]1C[C@H]3[C@H](N(C)C)C(O)=C(C(N)=O)C(=O)[C@@]3(O)C(O)=C1C2=O [minocycline]
7. CC(=O)NC[C@H]1CN(c2ccc(N3CCOCC3)c(F)c2)C(=O)O1 [linezolid]

**Result**
16
1
1
1
1
1
1

Look at each compound and report its Fold change of MICs.
1. O=C(NC(=O)N1CCc2c([nH]c3ccccc23)C1C(F)(F)F)c1ccccc1 (stereo not shown) [compound 13]
2. COc1cccc2c1C(=O)c1c(O)c3c(c(O)c1C2=O)C[C@@](O)(C(=O)CO)C[C@@H]3O[C@H]1C[C@H](N)[C@H](O)[C@H](C)O1 [doxorubicin]
3. CC(C)(C)c1cc(C(=O)NNC(=O)Nc2cccc3ccccc23)n(Cc2ccc(F)cc2)n1 [compound 4]
4. O=C(Nc1ccc(C(F)(F)F)cc1)Nc1ccc(C(F)(F)F)cc1 [compound 7]

**Result**
8
64
16
1

Look at each compound and report its Fold change of MICs.
1. CC(C)c1ccc(C=C(C#N)c2nc3ccccc3[nH]2)cc1 [compound 12]
2. COc1cc(Cc2cnc(N)nc2N)cc(OC)c1OC [trimethoprim]
3. C[n+]1c2cc(N)ccc2cc2ccc(N)cc21.[Cl-] [acriflavine]
4. O=C(Nc1ccccc1)Nc1ccc(Br)c(C(F)(F)F)c1 [compound 6]

**Result**
1
2
2
1

---

- Tested on: EKO-35
- Assay type: cell-based, Escherichia coli
- test.parameters: EKO-35; PAβN + antibiotic
- Procedure: Synergy measurement using checkerboard analysis was performed in 96-well microtiter plates using the microdilution broth method, according to CLSI guidelines (Patel J. B., 2015). The cell inocula were prepared using the colony resuspension method. The minimum inhibitory concentrations (MICs) were defined as the lowest concentration that provided no growth, as determined by measurement of the OD600nm using a Synergy H1 microplate reader (BioTek). […]
Would you mind telling me the reported FICI of each entry?
One number for each entry.

Use the examples below as a reference point.
INSERT INTO results (molecule, quantitative_result) VALUES
  ('Cc1onc(-c2ccccc2)c1C(=O)N[C@@H]1C(=O)N2[C@@H]1SC(C)(C)[C@@H]2C(=O)O [oxacillin]', 0.323),
  ('CO[C@@H]1[C@@H](OC(N)=O)[C@@H](O)[C@H](Oc2ccc3c(O)c(NC(=O)c4ccc(O)c(CC=C(C)C)c4)c(=O)oc3c2C)OC1(C)C [novobiocin]', 0.375),
  ('CC[C@H]1OC(=O)[C@H](C)[C@@H](O[C@H]2C[C@@](C)(OC)[C@@H](O)[C@H](C)O2)[C@H](C)[C@@H](O[C@@H]2O[C@H](C)C[C@H](N(C)C)[C@H]2O)[C@](C)(O)C[C@@H](C)C(=O)[C@H](C)[C@@H](O)[C@]1(C)O [erythromycin]', 0.093),
  ('CC(=O)O[C@H]1C[C@@]2(C)[C@@H](C[C@@H](O)[C@H]3[C@@]4(C)CC[C@@H](O)[C@@H](C)[C@@H]4CC[C@@]32C)/C1=C(\CCC=C(C)C)C(=O)O [fusidic acid]', 0.158);

**Query** Retrieve FICI measured for CC(=O)NC[C@H]1CN(c2ccc(N3CCOCC3)c(F)c2)C(=O)O1 [linezolid] and print it.
**Result** 0.750

---

- System: E. coli EKO-35
- assay.method.text: microbe, parasite or virus in culture
- Assay type: cell-based, Escherichia coli
- test.parameters: Table 13A; non-porinated; technical duplicate
property: Minimum Inhibitory Concentration, EKO-35 (µg/mL)
Answers are plain numbers, in µg/mL.

Use the examples below as a reference point.
INSERT INTO measurements (molecule, property, quantitative_result) VALUES
  ('C=C1CCO[C@]2([C@@H](O)[C@@](C)(O)CO)NC(=O)[C@@]1(O)NC2=O', 'Minimum Inhibitory Concentration, EKO-35', 200),
  ('CC(C)(C)c1cc(C(=O)NNC(=O)Nc2cccc3ccccc23)n(Cc2ccc(F)cc2)n1', 'Minimum Inhibitory Concentration, EKO-35', 20),
  ('N#CC(C#N)=NNc1cccc(Cl)c1', 'Minimum Inhibitory Concentration, EKO-35', 12.5);

Consider now this further molecule.
**Query** Retrieve Minimum Inhibitory Concentration, EKO-35 measured for C[C@H](CCC(=O)NCCS(=O)(=O)[O-])[C@H]1CC[C@H]2[C@@H]3CC[C@@H]4C[C@H](O)CC[C@]4(C)[C@H]3C[C@H](O)[C@]12C.[Na+] [sodium taurodeoxycholate] and print it.
**Result** 500

---

- Tested on: EKO-35 araC::acrEF
Binning of MIC into classes: low = under 3 mg/L, intermediate = from 3 mg/L up to 50 mg/L, high = 50 mg/L and over

Sample answers from the record:
INSERT INTO assay_data (compound, category) VALUES
  ('CO[C@H]1/C=C/O[C@@]2(C)Oc3c(C)c(O)c4c(O)c(c(/C=N/N5CCN(C)CC5)c(O)c4c3C2=O)NC(=O)/C(C)=C\C=C\[C@H](C)[C@H](O)[C@@H](C)[C@@H](O)[C@@H](C)[C@H](OC(C)=O)[C@@H]1C [rifampicin]', 'intermediate'),
  ('CC(=O)NC[C@H]1CN(c2ccc(N3CCOCC3)c(F)c2)C(=O)O1 [linezolid]', 'intermediate'),
  ('C[C@@H]1O[C@@H]1P(=O)(O)O [fosfomycin]', 'low'),
  ('CN[C@@H]1[C@H](O)[C@H](NC)[C@H]2O[C@@]3(O)C(=O)C[C@@H](C)O[C@H]3O[C@@H]2[C@H]1O [Spectinomycin]', 'intermediate');

**Query** Hey, which category is CN[C@H](CC(C)C)C(=O)N[C@H]1C(=O)N[C@@H](CC(N)=O)C(=O)N[C@H]2C(=O)N[C@H]3C(=O)N[C@H](C(=O)N[C@H](C(=O)O)c4cc(O)cc(O)c4-c4cc3ccc4O)[C@H](O)c3ccc(c(Cl)c3)Oc3cc2cc(c3O[C@@H]2O[C@H](CO)[C@@H](O)[C@H](O)[C@H]2O[C@H]2C[C@](C)(N)[C@H](O)[C@H](C)O2)Oc2ccc(cc2Cl)[C@H]1O [vancomycin] in, do you know?
**Result** high

**Query** Hey, which category is CC[n+]1c(-c2ccccc2)c2cc(N)ccc2c2ccc(N)cc21 [ethidium bromide] in, do you know?
**Result** intermediate

**Query** Hey, which category is COc1cccc2c1C(=O)c1c(O)c3c(c(O)c1C2=O)C[C@@](O)(C(C)=O)C[C@@H]3O[C@H]1C[C@H](N)[C@H](O)[C@H](C)O1 [daunorubicin] in, do you know?
**Result** high

**Query** Hey, which category is [H]/N=C(\N/C(=N/[H])NCCCCCCNC(=N)NC(=N)Nc1ccc(Cl)cc1)Nc1ccc(Cl)cc1 [Chlorhexidine] in, do you know?
**Result** low

**Query** Hey, which category is COc1ccc(C[C@H](N)C(=O)N[C@H]2[C@@H](O)[C@H](n3cnc4c(N(C)C)ncnc43)O[C@@H]2CO)cc1 [puromycin] in, do you know?
**Result** intermediate

**Query** Hey, which category is COc1cccc2c1C(=O)c1c(O)c3c(c(O)c1C2=O)C[C@@](O)(C(=O)CO)C[C@@H]3O[C@H]1C[C@H](N)[C@H](O)[C@H](C)O1 [doxorubicin] in, do you know?
**Result** high

**Query** Hey, which category is [H]/N=C(/N)N[C@H]1[C@H](O)[C@@H](O)[C@H](O[C@@H]2O[C@@H](C)[C@](O)(C=O)[C@H]2O[C@@H]2O[C@@H](CO)[C@H](O)[C@@H](O)[C@@H]2NC)[C@@H](N/C(N)=N\[H])[C@@H]1O [Streptomycin] in, do you know?
**Result** intermediate

**Query** Hey, which category is CN(C)[C@@H]1C(O)=C(C(N)=O)C(=O)[C@@]2(O)C(O)=C3C(=O)c4c(O)cccc4[C@@](C)(O)[C@H]3C[C@@H]12 [tetracycline] in, do you know?
**Result** low

**Query** Hey, which category is CC[C@H]1OC(=O)[C@H](C)[C@@H](O[C@H]2C[C@@](C)(OC)[C@@H](O)[C@H](C)O2)[C@H](C)[C@@H](O[C@@H]2O[C@H](C)C[C@H](N(C)C)[C@H]2O)[C@](C)(O)C[C@@H](C)CN(C)[C@H](C)[C@@H](O)[C@]1(C)O [azithromycin] in, do you know?
**Result** intermediate
